Some molecules, each annotated with its measured IC50.
Experimental System: system Xc^− (Homo sapiens)
Sequence (Q9UPY5 whole entry): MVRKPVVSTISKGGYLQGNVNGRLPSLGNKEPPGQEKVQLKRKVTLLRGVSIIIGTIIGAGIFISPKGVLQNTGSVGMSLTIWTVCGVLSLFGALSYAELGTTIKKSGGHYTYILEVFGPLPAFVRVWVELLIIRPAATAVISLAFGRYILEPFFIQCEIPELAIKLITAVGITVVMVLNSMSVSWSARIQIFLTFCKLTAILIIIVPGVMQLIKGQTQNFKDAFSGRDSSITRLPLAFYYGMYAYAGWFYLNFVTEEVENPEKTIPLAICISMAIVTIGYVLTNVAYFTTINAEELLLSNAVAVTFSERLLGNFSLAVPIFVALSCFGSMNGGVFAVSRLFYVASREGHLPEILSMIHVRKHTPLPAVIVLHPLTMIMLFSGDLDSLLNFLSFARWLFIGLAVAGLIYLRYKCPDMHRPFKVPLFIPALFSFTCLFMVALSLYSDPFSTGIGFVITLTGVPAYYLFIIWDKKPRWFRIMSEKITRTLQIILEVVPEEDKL
Sequence (P08195 102-630 partner): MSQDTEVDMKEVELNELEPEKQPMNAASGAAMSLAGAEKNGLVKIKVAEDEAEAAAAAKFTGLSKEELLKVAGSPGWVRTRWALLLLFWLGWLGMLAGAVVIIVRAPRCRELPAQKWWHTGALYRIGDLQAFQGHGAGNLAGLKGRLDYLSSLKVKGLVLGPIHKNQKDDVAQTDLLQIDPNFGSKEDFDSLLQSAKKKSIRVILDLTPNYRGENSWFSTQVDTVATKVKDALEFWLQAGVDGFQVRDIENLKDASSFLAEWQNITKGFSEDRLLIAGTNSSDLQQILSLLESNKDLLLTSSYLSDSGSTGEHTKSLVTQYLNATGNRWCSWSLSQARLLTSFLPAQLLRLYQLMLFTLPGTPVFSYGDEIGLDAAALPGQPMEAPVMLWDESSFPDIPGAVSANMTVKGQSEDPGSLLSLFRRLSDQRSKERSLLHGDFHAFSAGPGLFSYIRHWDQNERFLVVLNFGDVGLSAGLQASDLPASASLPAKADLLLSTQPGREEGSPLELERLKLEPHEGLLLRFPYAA
Experimental Details: Cystine-induced glutamate release assay
Type: cell-based
Set-up: endogenous in cells; host or cells: H4 cells
Assay Setup: H4 cells, sodium-free HEPES buffer, 50 μM L-Cystine, 2 hours, Amplex Red glutamate readout; read-out: pIC50 Cystine-induced glutamate release assay (converted)

Molecule	IC50
Cc1cc2c(cn1)-c1cccnc1[C@@H](C)C(=O)N2CC(=O)Nc1ccc(C(F)(F)F)cc1 (single isomer, unassigned)	15.8 to 39.8 nM
Cc1cc2c(c(F)n1)-c1ccc(F)cc1CC(=O)N2CC(=O)Nc1ccc(C(F)(F)F)cc1	39.8 to 100 nM

QUERY: // IC50 lookup, key: CC1C(=O)N(CC(=O)Nc2ccc(Cl)c(F)c2)c2cc(C(F)F)ncc2-c2cccnc21 (single isomer, unassigned)
RESULT: < 15.8 nM

QUERY: // IC50 lookup, key: C[C@@H]1C(=O)N(CC(=O)Nc2ccc(C(F)F)cc2)c2cc(N3CC[C@@H](F)C3)nc(F)c2-c2cccnc21 (single isomer, unassigned) [#276]
RESULT: < 15.8 nM
